Assay text: Volume of distribution at steady state in Beagle dog at 3 mg/kg, po and 0.3 mg/kg, iv
Assay type: ADME, organism-based, Canis lupus familiaris
Setup conditions: in vivo, read-out: Vdss
Readout: Vd (L/kg)

CCC/N=C1\S/C(=C\c2ccc(OC[C@@H](O)CO)c(Cl)c2)C(=O)N1c1ccccc1C ... 0.9

###

Cmax reference
Assay text: Cmax in Wistar rat at 10 mg/kg, po and 1 mg/kg, iv
Format: ADME, organism-based
Setup conditions: in vivo
Readout: Cmax (ng/mL)

CCC/N=C1\S/C(=C\c2ccc(OCC(O)CO)c(Cl)c2)C(=O)N1c1ccccc1C (racemic) ... 311
Cc1ccccc1N1C(=O)/C(=C/c2ccc(O)c(Cl)c2)S/C1=N\C(C)C ... 11
CC(C)/N=C1\S/C(=C\c2ccc(OCCO)cc2)C(=O)N1c1ccccc1 ... 499
